MIC values by entry
Tested on: Pseudomonas aeruginosa AJ 2116
method-description: Minimum Inhibitory Concentration (MIC) against Pseudomonas aeruginosa AJ 2116 in culture
Assay type: cell-based
protocol-conditions: AJ2116, read-out: MIC (minimum concentration of the compound required to inhibit the growth of the test organism in a culture)
Counter-ions that a name gives are not always drawn.
Kindly report the value followed by its unit.

molecule	MIC
CC1(C)S[C@@H]2[C@H](NC(=O)C(C(=O)O)c3ccccc3)C(=O)N2[C@H]1C(=O)O (some centres unmarked) [Carbenicillin, reference compound]	100 µg/mL

Q: Need MIC of CC1(C)S[C@@H]2[C@H](NC(=O)[C@H](NC(=O)c3nc[nH]c3C(=O)O)c3ccccc3)C(=O)N2[C@H]1C(=O)O , thanks.
Ans: 12.5 µg/mL

Q: Name the reported MIC value associated with the molecule CC1(C)S[C@@H]2[C@H](NC(=O)[C@H](NC(=O)c3nc[nH]c3C(=O)O)c3ccc(O)cc3)C(=O)N2[C@H]1C(=O)O [Example 3c, monohydrate]
Ans: 12.5 µg/mL

Q: MIC lookup needed for O=C(O)Cc1ccc[n+](CC2=C(C(=O)[O-])N3C(=O)[C@@H](NC(=O)[C@H](NC(=O)c4nc[nH]c4C(=O)O)c4ccccc4)[C@H]3SC2)c1 [Example 6, disodium salt] , thanks.
Ans: 12.5 µg/mL

Q: For the molecule O=C([O-])C1=C(C[n+]2ccc(CCS(=O)(=O)O)cc2)CS[C@@H]2[C@H](NC(=O)[C@H](NC(=O)c3nc[nH]c3C(=O)O)c3ccccc3)C(=O)N12 [Example 5, disodium salt trihydrate] , what MIC is on record?
Ans: 12.5 µg/mL
